- Target entity: LRRK2 kinase in SH-SY5Y cells over-expressing recombinant full length LRRK2 (Homo sapiens, UniProt Q5S007)
- Construct: A BacMam virus expressing full length recombinant LRRK2 was purchased from Invitrogen
- Sequence (Q5S007 whole entry): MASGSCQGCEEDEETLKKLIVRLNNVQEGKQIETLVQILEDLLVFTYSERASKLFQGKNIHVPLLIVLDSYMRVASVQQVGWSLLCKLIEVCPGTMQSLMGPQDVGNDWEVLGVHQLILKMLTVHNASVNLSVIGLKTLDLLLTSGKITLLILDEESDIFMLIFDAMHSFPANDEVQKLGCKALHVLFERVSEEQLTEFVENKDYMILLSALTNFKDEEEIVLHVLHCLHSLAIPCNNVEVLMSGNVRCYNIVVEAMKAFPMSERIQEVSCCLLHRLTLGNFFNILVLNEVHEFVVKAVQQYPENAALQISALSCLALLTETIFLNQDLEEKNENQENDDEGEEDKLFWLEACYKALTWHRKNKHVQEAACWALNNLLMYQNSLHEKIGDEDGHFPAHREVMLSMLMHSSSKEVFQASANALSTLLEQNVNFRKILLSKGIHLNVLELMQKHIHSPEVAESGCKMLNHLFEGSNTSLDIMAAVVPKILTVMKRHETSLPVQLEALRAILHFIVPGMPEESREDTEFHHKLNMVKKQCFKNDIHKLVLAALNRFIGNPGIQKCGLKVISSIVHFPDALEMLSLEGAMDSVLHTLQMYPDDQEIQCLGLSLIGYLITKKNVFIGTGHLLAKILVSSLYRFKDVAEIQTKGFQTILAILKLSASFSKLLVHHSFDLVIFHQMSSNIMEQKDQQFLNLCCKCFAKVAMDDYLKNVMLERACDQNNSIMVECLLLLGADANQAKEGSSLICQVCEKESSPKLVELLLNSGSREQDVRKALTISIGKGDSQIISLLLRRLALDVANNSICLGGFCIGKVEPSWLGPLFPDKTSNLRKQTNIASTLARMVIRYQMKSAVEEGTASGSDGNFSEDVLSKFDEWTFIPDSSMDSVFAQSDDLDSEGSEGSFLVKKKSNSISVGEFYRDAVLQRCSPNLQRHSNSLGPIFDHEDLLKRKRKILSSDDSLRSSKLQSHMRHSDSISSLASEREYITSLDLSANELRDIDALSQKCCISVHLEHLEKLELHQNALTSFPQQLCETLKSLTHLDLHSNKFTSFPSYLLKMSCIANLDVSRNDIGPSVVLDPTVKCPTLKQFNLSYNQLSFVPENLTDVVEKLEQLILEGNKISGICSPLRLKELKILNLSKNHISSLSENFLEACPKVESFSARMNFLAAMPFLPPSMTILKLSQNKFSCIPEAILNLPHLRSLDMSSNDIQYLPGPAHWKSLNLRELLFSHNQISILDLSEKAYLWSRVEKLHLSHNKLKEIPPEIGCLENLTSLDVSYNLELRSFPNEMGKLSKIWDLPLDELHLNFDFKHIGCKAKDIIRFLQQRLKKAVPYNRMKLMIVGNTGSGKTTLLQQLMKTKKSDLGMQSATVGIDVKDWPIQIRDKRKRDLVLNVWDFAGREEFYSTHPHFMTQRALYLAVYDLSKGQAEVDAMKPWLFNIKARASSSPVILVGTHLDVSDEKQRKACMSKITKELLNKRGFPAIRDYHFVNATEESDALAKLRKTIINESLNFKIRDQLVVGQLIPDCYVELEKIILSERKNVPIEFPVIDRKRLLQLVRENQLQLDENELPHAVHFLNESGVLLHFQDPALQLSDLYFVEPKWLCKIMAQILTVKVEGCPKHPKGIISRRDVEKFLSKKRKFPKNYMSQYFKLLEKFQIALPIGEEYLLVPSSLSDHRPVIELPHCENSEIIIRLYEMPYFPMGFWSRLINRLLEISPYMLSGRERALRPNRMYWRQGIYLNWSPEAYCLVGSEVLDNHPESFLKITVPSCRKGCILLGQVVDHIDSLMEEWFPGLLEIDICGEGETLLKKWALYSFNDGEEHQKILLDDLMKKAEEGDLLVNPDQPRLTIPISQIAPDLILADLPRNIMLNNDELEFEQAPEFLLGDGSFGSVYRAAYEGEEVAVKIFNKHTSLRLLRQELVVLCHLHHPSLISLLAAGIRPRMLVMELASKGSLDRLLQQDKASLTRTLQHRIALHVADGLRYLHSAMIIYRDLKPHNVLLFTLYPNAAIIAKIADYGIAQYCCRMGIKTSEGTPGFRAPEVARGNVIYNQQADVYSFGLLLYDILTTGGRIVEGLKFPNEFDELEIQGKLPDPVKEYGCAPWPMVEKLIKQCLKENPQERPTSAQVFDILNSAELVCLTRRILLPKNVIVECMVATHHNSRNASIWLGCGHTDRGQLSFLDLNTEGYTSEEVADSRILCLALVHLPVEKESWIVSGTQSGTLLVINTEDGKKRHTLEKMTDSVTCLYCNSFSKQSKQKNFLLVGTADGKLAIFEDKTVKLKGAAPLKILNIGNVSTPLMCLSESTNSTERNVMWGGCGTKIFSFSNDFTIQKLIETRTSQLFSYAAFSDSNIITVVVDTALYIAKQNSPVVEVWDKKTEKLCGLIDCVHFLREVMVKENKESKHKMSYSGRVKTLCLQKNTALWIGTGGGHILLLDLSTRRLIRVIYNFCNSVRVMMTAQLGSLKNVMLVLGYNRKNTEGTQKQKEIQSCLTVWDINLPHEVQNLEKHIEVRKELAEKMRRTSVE
- Protocol summary: Recombinant cellular LRRK2 AlphaScreen assay (LRRK2 Ser935 phosphorylation)
- Assay setup: 60 min
Measurement type: IC50

These recorded examples may help you get a feel for the data.
Cc1c2c(nn1C1CCN(C3COC3)CC1)OCC[C@@H](C)Nc1nc(ncc1Cl)N2 [E65]
≤ 100 nM
Clc1cnc2nc1NCCCOc1nn(C3CCOCC3)c(Cl)c1N2 [E13]
≤ 100 nM
Cc1c2c(nn1C1CC(O)C1)OCC[C@@H](C)N(C)c1nc(ncc1Cl)N2 (some centres unmarked) [E376]
≤ 100 nM

Form: compound = Cc1c2c(nn1C1CCCN(C3COC3)C1)OCC[C@@H](C)Nc1nc(ncc1Cl)N2 (single isomer, unassigned) [E67] ; IC50 = ≤ 100 nM

Form: compound = Cc1c2c(nn1C1CCOCC1)OCCC(CF)Nc1nc(ncc1Cl)N2 (single isomer, unassigned) [E54] ; IC50 = ≤ 100 nM

Form: compound = Cc1c2c(nn1C1CCC(F)(F)CC1)OCC[C@@H](C)Nc1nc(ncc1Cl)N2 [E373] ; IC50 = ≤ 100 nM

Form: compound = Cc1c2c(nn1C(C)C1CCOCC1)OCCC(C)Nc1nc(ncc1Cl)N2 (single isomer, unassigned) [E183] ; IC50 = ≤ 100 nM

Form: compound = Cc1c2c(nn1C1CC(O)C1)OCC[C@@H](C)Nc1nc(ncc1Cl)N2 (some centres unmarked) [E375] ; IC50 = ≤ 100 nM

Form: compound = FC(F)c1c2c(nn1C1CCOCC1)OCCCNc1nc(ncc1Cl)N2 [E112] ; IC50 = ≤ 100 nM

Form: compound = COCCN1CCC(n2nc3c(c2C)Nc2ncc(Cl)c(n2)NCCCO3)C(F)C1 (single isomer, unassigned) [E59] ; IC50 = ≤ 100 nM

Form: compound = Clc1cnc2nc1NCCCOc1n[nH]c(Cl)c1N2 [E396] ; IC50 = ≤ 100 nM

Form: compound = Cc1c2c(nn1C1CCN(C3COC3)CC1(F)F)OCC[C@@H](C)Nc1nc(ncc1Cl)N2 (some centres unmarked) [E411] ; IC50 = ≤ 100 nM

Form: compound = Cc1c2c(nn1C1CCC(N3CCOCC3)C1)OCCCNc1nc(ncc1Cl)N2 (single isomer, unassigned) [E369] ; IC50 = ≤ 100 nM

Form: compound = Cc1c2c(nn1C1CCC(C)CC1)OCCCNc1nc(ncc1Cl)N2 (single isomer, unassigned) [E257] ; IC50 = ≤ 100 nM

Form: compound = Cc1c2c(nn1C1CCOCC1)OCCCNc1nc(ncc1Br)N2 [E367] ; IC50 = ≤ 100 nM

Form: compound = Cc1c2c(nn1C1CCOCC1)OCCCOc1nc(ncc1C(F)(F)F)N2 [E117] ; IC50 = ≤ 100 nM

Form: compound = Cc1c2c(nn1C1CC(C)OC(C)C1)OCCCNc1nc(ncc1Cl)N2 (single isomer, unassigned) [E200] ; IC50 = ≤ 100 nM

###

- Target entity: full length G2019 human LRRK2 (Homo sapiens, UniProt Q5S007, R50H)
- Sequence (Q5S007 with tags, fused parts or gaps R50H): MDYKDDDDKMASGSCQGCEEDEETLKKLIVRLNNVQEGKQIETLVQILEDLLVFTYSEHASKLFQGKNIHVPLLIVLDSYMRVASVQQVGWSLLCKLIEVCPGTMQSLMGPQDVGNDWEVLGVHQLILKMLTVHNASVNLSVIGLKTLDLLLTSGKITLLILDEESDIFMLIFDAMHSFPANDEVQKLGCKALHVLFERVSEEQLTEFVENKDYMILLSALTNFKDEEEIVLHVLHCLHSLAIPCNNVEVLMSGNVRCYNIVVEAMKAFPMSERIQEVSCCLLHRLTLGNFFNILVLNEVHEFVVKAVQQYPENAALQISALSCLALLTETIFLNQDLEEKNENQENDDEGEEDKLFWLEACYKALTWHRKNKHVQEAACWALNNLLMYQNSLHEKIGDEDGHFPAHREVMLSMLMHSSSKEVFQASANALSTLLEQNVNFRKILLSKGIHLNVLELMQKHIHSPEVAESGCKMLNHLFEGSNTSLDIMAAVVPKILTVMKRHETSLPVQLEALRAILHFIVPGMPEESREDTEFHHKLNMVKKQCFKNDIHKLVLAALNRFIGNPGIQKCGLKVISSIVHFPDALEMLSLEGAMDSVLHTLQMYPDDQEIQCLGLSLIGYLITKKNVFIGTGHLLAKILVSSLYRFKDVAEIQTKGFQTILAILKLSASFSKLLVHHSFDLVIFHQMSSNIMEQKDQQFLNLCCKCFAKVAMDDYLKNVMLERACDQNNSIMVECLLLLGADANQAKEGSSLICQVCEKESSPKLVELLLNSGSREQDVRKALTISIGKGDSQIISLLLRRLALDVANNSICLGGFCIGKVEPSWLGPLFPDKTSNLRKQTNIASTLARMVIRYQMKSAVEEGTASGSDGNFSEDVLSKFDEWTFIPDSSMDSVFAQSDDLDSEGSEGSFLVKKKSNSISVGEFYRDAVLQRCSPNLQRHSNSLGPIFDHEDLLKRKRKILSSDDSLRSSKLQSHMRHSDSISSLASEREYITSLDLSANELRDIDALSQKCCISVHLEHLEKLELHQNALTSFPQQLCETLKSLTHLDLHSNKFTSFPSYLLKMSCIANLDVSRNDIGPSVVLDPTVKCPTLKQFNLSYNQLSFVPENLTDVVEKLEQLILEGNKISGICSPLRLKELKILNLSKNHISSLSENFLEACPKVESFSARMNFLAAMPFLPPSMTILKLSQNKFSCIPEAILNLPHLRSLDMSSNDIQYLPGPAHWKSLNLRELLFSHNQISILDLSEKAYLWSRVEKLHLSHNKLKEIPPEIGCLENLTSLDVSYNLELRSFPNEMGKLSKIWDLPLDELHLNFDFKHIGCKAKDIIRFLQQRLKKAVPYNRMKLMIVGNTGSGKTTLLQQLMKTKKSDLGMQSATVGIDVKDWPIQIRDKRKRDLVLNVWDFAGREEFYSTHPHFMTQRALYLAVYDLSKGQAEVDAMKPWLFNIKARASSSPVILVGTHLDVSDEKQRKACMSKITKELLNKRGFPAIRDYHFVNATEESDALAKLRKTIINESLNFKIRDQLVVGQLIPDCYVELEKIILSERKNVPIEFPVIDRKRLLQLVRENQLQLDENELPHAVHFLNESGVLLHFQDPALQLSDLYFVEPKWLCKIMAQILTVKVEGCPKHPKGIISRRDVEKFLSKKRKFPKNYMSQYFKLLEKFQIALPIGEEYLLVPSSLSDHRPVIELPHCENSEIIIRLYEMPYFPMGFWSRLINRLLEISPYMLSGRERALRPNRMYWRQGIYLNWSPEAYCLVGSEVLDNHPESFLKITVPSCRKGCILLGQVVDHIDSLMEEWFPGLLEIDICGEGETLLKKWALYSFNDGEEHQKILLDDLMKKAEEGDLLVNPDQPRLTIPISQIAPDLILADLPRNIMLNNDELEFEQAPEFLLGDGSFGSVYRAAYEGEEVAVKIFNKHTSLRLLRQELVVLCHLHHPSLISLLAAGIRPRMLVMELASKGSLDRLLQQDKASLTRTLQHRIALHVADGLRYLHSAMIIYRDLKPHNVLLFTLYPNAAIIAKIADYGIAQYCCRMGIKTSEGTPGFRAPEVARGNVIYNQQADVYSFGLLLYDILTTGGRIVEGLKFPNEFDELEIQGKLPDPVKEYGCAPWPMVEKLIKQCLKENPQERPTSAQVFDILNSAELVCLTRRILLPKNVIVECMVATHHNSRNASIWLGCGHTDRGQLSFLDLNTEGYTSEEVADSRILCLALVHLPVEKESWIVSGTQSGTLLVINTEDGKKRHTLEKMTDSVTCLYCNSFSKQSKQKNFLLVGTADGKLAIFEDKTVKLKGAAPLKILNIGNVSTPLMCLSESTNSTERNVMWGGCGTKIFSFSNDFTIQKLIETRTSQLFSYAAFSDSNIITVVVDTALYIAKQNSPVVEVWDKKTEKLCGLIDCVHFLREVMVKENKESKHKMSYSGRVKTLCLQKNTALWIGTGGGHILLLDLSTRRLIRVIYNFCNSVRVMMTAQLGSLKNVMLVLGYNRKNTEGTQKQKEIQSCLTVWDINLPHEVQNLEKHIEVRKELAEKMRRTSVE
- Protocol summary: Full length G2019 human LRRK2 inhibition mass spectrometry assay
- Assay setup: LRRKtide to phospho-LRRKtide conversion, RapidFire MS, 2 mM ATP
# IC50 per record follows

These recorded examples may help you get a feel for the data.
COC1CNc2nc(ncc2Cl)Nc2c(nn(CC3(C)COC3)c2C)OC1 (single isomer, unassigned) [E273]
≤ 10000 nM
Cc1c2c(nn1C1CCOC1)OCCCNc1nc(ncc1Cl)N2 (single isomer, unassigned) [E123]
≤ 100 nM
Cc1c2c(nn1C1CCOCC1)OCCCOc1nc(ncc1Cl)N2
≤ 100 nM
Cc1c2c(nn1C(C)C1CCOCC1)OCCC(C)Nc1nc(ncc1Cl)N2 (single isomer, unassigned) [E184]
≤ 100 nM
Cc1c2c(nn1C1COCCC1(F)F)OCCCNc1nc(ncc1Cl)N2 (single isomer, unassigned) [E302]
≤ 100 nM
CCOC1CNc2nc(ncc2Cl)Nc2c(nn(C3CCOCC3)c2C)OC1 (single isomer, unassigned) [E286]
≤ 10000 nM
Cc1c2c(nn1C1CN(C3COC3)CCC1F)OCC[C@@H](C)Nc1nc(ncc1Cl)N2 (single isomer, unassigned) [E403]
≤ 100 nM

Now let's try a different one.
Field IC50 (system: full length G2019 human LRRK2 (Homo sapiens, UniProt Q5S007, R50H)) for entry `Cc1c2c(nn1C1CN(C3COC3)C1)OCC[C@@H](C)Nc1nc(ncc1Cl)N2` = ≤ 100 nM
